Attribution: paper PMC6001238

tested on: L1210, CEM and HeLa cell lines; assay: Cytostatic activity, average or summary over L1210, CEM and HeLa; type: cell-based; conditions: average of L1210, CEM and HeLa; read-out: Toxicity (IC50) Average

{"molecule": "CNC(CC(C)C)C(=O)NC1C(=O)NC(CC(N)=O)C(=O)NC2C(=O)NC3C(=O)NC(C(=O)NC(C(=O)NCCCNC(=O)c4ccc(-c5ccc(F)cc5)cc4)c4cc(O)cc(O)c4-c4cc3ccc4O)C(O)c3ccc(c(Cl)c3)Oc3cc2cc(c3OC2OC(CO)C(O)C(O)C2OC2CC(C)(N)C(O)C(C)O2)Oc2ccc(cc2Cl)C1O (stereo not drawn) [Vanc-34]", "result_comparator": "=", "IC50 (µM)": 62}
{"molecule": "CCCCOc1ccc(C(=O)NCCCNC(=O)C2NC(=O)C3NC(=O)C(NC(=O)C4NC(=O)C(CC(N)=O)NC(=O)C(NC(=O)C(CC(C)C)NC)C(O)c5ccc(c(Cl)c5)Oc5cc4cc(c5OC4OC(CO)C(O)C(O)C4OC4CC(C)(N)C(O)C(C)O4)Oc4ccc(cc4Cl)C3O)c3ccc(O)c(c3)-c3c(O)cc(O)cc32)cc1 (stereo not drawn) [Vanc-50]", "result_comparator": "=", "IC50 (µM)": 144}
{"molecule": "C#CCCC(=O)NCCCNC(=O)C1NC(=O)C2NC(=O)C(NC(=O)C3NC(=O)C(CC(N)=O)NC(=O)C(NC(=O)C(CC(C)C)NC)C(O)c4ccc(c(Cl)c4)Oc4cc3cc(c4OC3OC(CO)C(O)C(O)C3OC3CC(C)(N)C(O)C(C)O3)Oc3ccc(cc3Cl)C2O)c2ccc(O)c(c2)-c2c(O)cc(O)cc21 (stereo not drawn) [Vanc-B]", "result_comparator": ">", "IC50 (µM)": 250}

###

Tested on: E. faecalis VRE 53
Assay: MIC, broth microdilution, vancomycin-resistant E. faecalis VRE 53 (VanA)
Assay type: cell-based, Enterococcus faecalis
Conditions: E. faecalis VRE 53; ratio of MIC of vancomycin and MIC of analogue
Experimental: The minimum inhibitory concentration (MIC) was determined using the broth microdilution method according to the antimicrobial susceptibility testing standards of the clinical and laboratory standards institute ([Clinical and Laboratory Standards Institute [CLSI], 2012]). Ultrapure water and non-inoculated broth were used as controls. In one case, a final concentration of 10 μM vancomycin was included with the vancomycin analog or control antibiotic.
value_kind: MICvanc/MICi

{"compound": "C#CCCC(=O)NCCCNC(=O)C1NC(=O)C2NC(=O)C(NC(=O)C3NC(=O)C(CC(N)=O)NC(=O)C(NC(=O)C(CC(C)C)NC)C(O)c4ccc(c(Cl)c4)Oc4cc3cc(c4OC3OC(CO)C(O)C(O)C3OC3CC(C)(N)C(O)C(C)O3)Oc3ccc(cc3Cl)C2O)c2ccc(O)c(c2)-c2c(O)cc(O)cc21 (stereo not shown) [Vanc-B]", "value_kind": "MICvanc/MICi", "measured_value": 32}

###

system: Clostridium difficile ATJ ribotype 014/20; experiment: MIC, plate drop assay, C. difficile ATJ ribotype 014/20; format: cell-based; settings: C. difficile ATJ ribotype 014/20
value_kind: MIC-fold improvement vs. vancomycin

{"molecule": "CNC(CC(C)C)C(=O)NC1C(=O)NC(CC(N)=O)C(=O)NC2C(=O)NC3C(=O)NC(C(=O)NC(C(=O)NCCNC(=O)C=Cc4ccccc4)c4cc(O)cc(O)c4-c4cc3ccc4O)C(O)c3ccc(c(Cl)c3)Oc3cc2cc(c3OC2OC(CO)C(O)C(O)C2OC2CC(C)(N)C(O)C(C)O2)Oc2ccc(cc2Cl)C1O (stereo not drawn) [Vanc-21]", "value_kind": "MIC-fold improvement vs. vancomycin", "measured_value": "<1.4"}
{"molecule": "CN[C@H](CC(C)C)C(=O)N[C@H]1C(=O)N[C@@H](CC(N)=O)C(=O)N[C@H]2C(=O)N[C@H]3C(=O)N[C@H](C(=O)N[C@H](C(=O)NCC(=O)Nc4ccc5cc6ccccc6cc5c4)c4cc(O)cc(O)c4-c4cc3ccc4O)[C@H](O)c3ccc(c(Cl)c3)Oc3cc2cc(c3O[C@@H]2O[C@H](CO)[C@@H](O)[C@H](O)[C@H]2O[C@H]2C[C@](C)(N)[C@H](O)[C@H](C)O2)Oc2ccc(cc2Cl)[C@H]1O [Vanc-59]", "value_kind": "MIC-fold improvement vs. vancomycin", "measured_value": 22}

###

System: S. aureus VISA/HIP5827
Assay: MIC, broth microdilution, vancomycin-intermediate S. aureus VISA HIP5827
Format: cell-based, Staphylococcus aureus
Settings: Staphylococcus aureus VISA/HIP5827; read-out: MIC
Method: The minimum inhibitory concentration (MIC) was determined using the broth microdilution method according to the antimicrobial susceptibility testing standards of the clinical and laboratory standards institute ([Clinical and Laboratory Standards Institute [CLSI], 2012]). Ultrapure water and non-inoculated broth were used as controls. In one case, a final concentration of 10 μM vancomycin was included with the vancomycin analog or control antibiotic.
Simple rule here: MIC less than 0.8 µM is criterion met, otherwise criterion not met.

{"compound": "CNC(CC(C)C)C(=O)NC1C(=O)NC(CC(N)=O)C(=O)NC2C(=O)NC3C(=O)NC(C(=O)NC(C(=O)NCC(=O)Nc4cccc(OC)c4)c4cc(O)cc(O)c4-c4cc3ccc4O)C(O)c3ccc(c(Cl)c3)Oc3cc2cc(c3OC2OC(CO)C(O)C(O)C2OC2CC(C)(N)C(O)C(C)O2)Oc2ccc(cc2Cl)C1O (centres unmarked)", "assayed_system": "S. aureus VISA/HIP5827", "category": "criterion met"}
{"compound": "CNC(CC(C)C)C(=O)NC1C(=O)NC(CC(N)=O)C(=O)NC2C(=O)NC3C(=O)NC(C(=O)NC(C(=O)NCCCNC(=O)c4ccc5ccccc5n4)c4cc(O)cc(O)c4-c4cc3ccc4O)C(O)c3ccc(c(Cl)c3)Oc3cc2cc(c3OC2OC(CO)C(O)C(O)C2OC2CC(C)(N)C(O)C(C)O2)Oc2ccc(cc2Cl)C1O (centres unmarked)", "assayed_system": "S. aureus VISA/HIP5827", "category": "criterion met"}
{"compound": "CN(C)c1cc(NC(=O)CNC(C)(C)C)c(O)c2c1C[C@H]1C[C@H]3[C@H](N(C)C)C(O)=C(C(N)=O)C(=O)[C@@]3(O)C(O)=C1C2=O [Tigecycline, reference compound]", "assayed_system": "S. aureus VISA/HIP5827", "category": "criterion not met"}
{"compound": "CN[C@H](CC(C)C)C(=O)N[C@H]1C(=O)N[C@@H](CC(N)=O)C(=O)N[C@H]2C(=O)N[C@H]3C(=O)N[C@H](C(=O)N[C@H](C(=O)NCC(=O)Nc4cccc5ccccc45)c4cc(O)cc(O)c4-c4cc3ccc4O)[C@H](O)c3ccc(c(Cl)c3)Oc3cc2cc(c3O[C@@H]2O[C@H](CO)[C@@H](O)[C@H](O)[C@H]2O[C@H]2C[C@](C)(N)[C@H](O)[C@H](C)O2)Oc2ccc(cc2Cl)[C@H]1O", "assayed_system": "S. aureus VISA/HIP5827", "category": "criterion not met"}
{"compound": "CNC(CC(C)C)C(=O)NC1C(=O)NC(CC(N)=O)C(=O)NC2C(=O)NC3C(=O)NC(C(=O)NC(C(=O)NCCCNC(=O)c4ccc(-c5ccccc5)cc4)c4cc(O)cc(O)c4-c4cc3ccc4O)C(O)c3ccc(c(Cl)c3)Oc3cc2cc(c3OC2OC(CO)C(O)C(O)C2OC2CC(C)(N)C(O)C(C)O2)Oc2ccc(cc2Cl)C1O (centres unmarked)", "assayed_system": "S. aureus VISA/HIP5827", "category": "criterion met"}

###

tested on: MRSA KS2; assay: MIC, broth microdilution, MRSA KS2; type: cell-based, Staphylococcus aureus; settings: Staphylococcus aureus MRSA KS2; read-out: MIC

{"molecule": "CNC(CC(C)C)C(=O)NC1C(=O)NC(CC(N)=O)C(=O)NC2C(=O)NC3C(=O)NC(C(=O)NC(C(=O)NCCCNC(=O)c4nc5ccccc5[nH]4)c4cc(O)cc(O)c4-c4cc3ccc4O)C(O)c3ccc(c(Cl)c3)Oc3cc2cc(c3OC2OC(CO)C(O)C(O)C2OC2CC(C)(N)C(O)C(C)O2)Oc2ccc(cc2Cl)C1O (centres unmarked)", "MIC / µM": 0.39}
{"molecule": "CN[C@H](CC(C)C)C(=O)N[C@H]1C(=O)N[C@@H](CC(N)=O)C(=O)N[C@H]2C(=O)N[C@H]3C(=O)N[C@H](C(=O)N[C@H](C(=O)NCCNC(=O)/C=C/c4ccc(F)cc4)c4cc(O)cc(O)c4-c4cc3ccc4O)[C@H](O)c3ccc(c(Cl)c3)Oc3cc2cc(c3O[C@@H]2O[C@H](CO)[C@@H](O)[C@H](O)[C@H]2O[C@H]2C[C@](C)(N)[C@H](O)[C@H](C)O2)Oc2ccc(cc2Cl)[C@H]1O", "MIC / µM": 0.39}

###

test system: MRSA KS2; assay: MIC, broth microdilution, MRSA KS2; format: cell-based, Staphylococcus aureus; conditions: Staphylococcus aureus MRSA KS2; read-out: MIC
value_kind: MIC (µM)

{"compound": "CNC(CC(C)C)C(=O)NC1C(=O)NC(CC(N)=O)C(=O)NC2C(=O)NC3C(=O)NC(C(=O)NC(C(=O)NCC(=O)Nc4ccc(C#CC5CC5)cc4)c4cc(O)cc(O)c4-c4cc3ccc4O)C(O)c3ccc(c(Cl)c3)Oc3cc2cc(c3OC2OC(CO)C(O)C(O)C2OC2CC(C)(N)C(O)C(C)O2)Oc2ccc(cc2Cl)C1O (stereo not shown)", "result_units": "µM", "measured_value": 0.20}
